test-description: Nitroreductase enzyme assay with CB 1954 as substrate (HPLC)
Type: biochemical
measurement-context: Table 2, recombinant B. subtilis enzymes, crude lysates
measured-metric: CB1954 (product formed / activity)

Task: Answer with reported CB1954 (product formed / activity) of YdgI (Bacillus subtilis subsp. subtilis str. 168) (protein, made in house; host or cells: E. coli (pMTL1015; HMS174)) MIKTNDFMEIMKGRRSIRNYDPAVKISKEEMTEILEEATTAPSSVNAQPWRFLVIDSPEGKEKLAPLASFNQTQVTTSSAVIAVFADMNNADYLEEIYSKAVELGYMPQEVKDRQIAALTAHFEKLPAQVNRETILIDGGLVSMQLMLTARAHGYDTNPIGGYDKENIAETFGLDKERYVPVMLLSIGKAADEGYASYRLPIDTIAEWK
Result: 2/4HX
